target: Fn14-TWEAK binding (Homo sapiens, UniProt Q9NP84); construct: the human Fc fragment-tagged Fn14 extracellular domain (R&D Systems) was captured; purchased R&D Systems (Fn14-Fc); Peprotech (recombinant TWEAK); assay: Double sandwich ELISA small molecule screening of TWEAK binding to captured Fn14-Fc; details: Table 5, 25 μM, replicate 1; read-out: % Reduction in TWEAK Binding, Data 1
Sequence (Q9NP84 28-80 limits assumed): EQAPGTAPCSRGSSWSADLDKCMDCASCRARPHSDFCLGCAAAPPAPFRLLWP
Reported inhibition at 25 µM values for the following compounds.
Quick note: give the figure in %, leave out the unit.

compound="O=C(CSc1nnc(-c2ccccc2)c(-c2ccccc2)n1)Nc1ccc(S(=O)(=O)Nc2nccs2)cc1 [Compound 4981-0539]" readout_units=% measured_result=11.3
compound="Nc1ccccc1SCC(=O)Nc1cccc2nsnc12 [Compound 8415-09495]" readout_units=% measured_result=17.8

Q: Reported inhibition at 25 µM, compound CCC(=O)Nc1ccccc1-c1nnc(SC(CC)C(=O)Nc2cccc(OC)c2)[nH]c1=O (centres unmarked) [Compound F151-0392] : ____
A: 9.04

Q: If you can, please state the reported inhibition at 25 µM value of Cc1cc(C2CCCN2C(=O)c2cc(-c3ccc4c(c3)OCO4)on2)on1 (centres unmarked) [Compound J004-1091] .
A: 23.1

Q: Quick one: inhibition at 25 µM for O=C(NCc1cccnc1)C(=O)NCc1n[nH]c(=O)c2ccccc12 [Compound F044-0083] ?
A: 11.1

Q: Any idea what inhibition at 25 µM was measured for CCC(=O)Nc1ccccc1-c1nnc(SCC(=O)Nc2cc(C)ccc2C)[nH]c1=O [Compound F151-0458] ?
A: 10.7

Q: Please report the recorded inhibition at 25 µM for O=C(Cc1c[nH]c2ccccc12)Nc1ccc2oc(=O)ccc2c1 [Compound D715-0817] .
A: 9.04

Q: Field request: inhibition at 25 µM | item: CCC(=O)Nc1ccccc1-c1nnc(SC(CC)C(=O)Nc2cc(OC)cc(OC)c2)[nH]c1=O (centres unmarked) [Compound F151-0435]
A: 18.9
